protocol: Systemic clearance in Sprague-Dawley rat plasma at 1 mg/kg, iv administered as single dose by high-performance liquid chromatography
Format: ADME, organism-based
Design: dose 1 mg/kg, route intravenous
Starred links: 1 amine or outer side, 2 acyl side, 3 side chain; linkers in the order of their positions; H or OH if unused. Positions of bridges follow the written chain, without caps; N, C: chain ends. Non-standard residues stand in square brackets, D forms with d. Residues, ends and D or L forms follow the SMILES beside them. *: point of attachment. hTyr(3S-OH,4S-OH,3'-OSO3H) = N[C@H](C(=O)O)[C@H](O)[C@@H](O)c1ccc(O)c(OS(=O)(=O)O)c1; Orn(4R-OH,5R-OH) = O=C([C@H](C[C@@H](O)[C@@H](O)N[*:3])N[*:1])[*:2]; Pro(3S-OH,4S-Me) = C[C@H]1CN[C@H](C(=O)O)[C@H]1O; X1 = CCCCCOc1ccc(-c2cc(-c3ccc(C(=O)*)cc3)no2)cc1; Gln(3R-OH) = NC(=O)C[C@@H](O)[C@H](N)C(=O)O; Hyp = O=C(O)[C@@H]1C[C@@H](O)CN1
experimental.endpoint: clearance (mL/min/kg)
One number for each entry, in mL/min/kg.

Query block: Which clearance value belongs to CCCCCOc1ccc(-c2cc(-c3ccc(C(=O)N[C@H]4C[C@@H](O)[C@@H](O)NC(=O)[C@@H]5[C@@H](O)[C@@H](C)CN5C(=O)[C@H]([C@H](O)CC(N)=O)NC(=O)[C@H]([C@H](O)[C@@H](O)c5ccc(O)c(OS(=O)(=O)O)c5)NC(=O)[C@@H]5C[C@@H](O)CN5C(=O)[C@H]([C@@H](C)O)NC4=O)cc3)no2)cc1 [MICAFUNGIN] (X1-[Orn(4R-OH,5R-OH)]T[Hyp][hTyr(3S-OH,4S-OH,3'-OSO3H)][Gln(3R-OH)][Pro(3S-OH,4S-Me)]; lactam 1-C) ?
Result block: 1.15
